Each item that follows carries a reported Relative activity on ATP, pH 3.
# Assay Overview: pH profile of enzymes on 1 mM ATP
# Format: biochemical
# Applied Conditions: 50 mM trisodium citrate/citric acid, 5 mM CaCl2, relative to the highest value
Quantity Name: Relative activity on ATP, pH 3

>>> measured_value("CRC25085: Acid phosphatase (Class A), accession WP_092747651.1, SEQ ID NO:21 (protein, listed as Acinetobacter boissieri) LEQSNSFLQLAQVPDSLAIVPAPPAYNSVDFLRDKAAYDQAKSLVGTERWKVAAEDADLSDANIGKPFSQALGIEISPQNTPITYEILRKLRTDAGNYATKAAKEHYMRLRPFMFFNSHTCTPNDEANLSKNGAYPSGHTTIGWSSALVLAEIRPERQNEILQRGYEYGQSRVICGVHWQSDVDAGRITGSAIVARLHADKAFTKMLEEAKQEIQRKTK")
0.5
>>> measured_value("CRC25084: Acid phosphatase (Class A), accession WP_088823167.1, SEQ ID NO:20 (protein, listed as Acinetobacter apis) ADSNNSFLQLNQVPDSLKIVPAPPAFNSVDFLRDKAAYDQARSLVGTARWQQAAVDADLSDANIGKSFSEAFGVEISPTNTPVTYEILRKLRTDAGGYATKTAKEHYMRMRPFVFFNSHTCTPNDEASLSKNGAYPSGHTTIGWSSALILAEIRPDRQNEILERGYQYGQSRVICGVHWQSDVDAGRITGSAIVARLHADKDFAKTLEDAKREIQKKIK")
0.4
>>> measured_value("CRC25099: Acid phosphatase (Class A), accession WP_195761705.1, SEQ ID NO:23 (protein, listed as Pantoea sp.) LQSSGFLTAETAPDSLAILPPPPAENSVTFQSDKAQYEAGHVLRNVARTELASKDADYKNFGQAFSAAFGMEISESHTPVLYHLLSEVLQDSHDFAMRGAKDHYKRVRPFVIYKDSTCTPDKDKSMSTTGSYPSGHASFGWAAALILAEINPSRETEIIRRGYDFGESRVVCGAHWQSDVENGRIMGATVVASLHANAKFAELLSQAKNEFATLSAQDSK")
0.0
